Source: the supplement of paper PMC6089552

Test system: A673/TR/shEF
Experiment: cell viability (LOESS-normalised, relative to median of negative controls) (log2 ratio); higher = more viable cells (less compound effect), active = hit call of the paper (over 3 MAD below the median)
Settings: 2.5 µM; library screen: screen2; EWS-FLI1 expression: high (no doxycycline); treatment time: 72 h
Screen size: about 3,200 compounds; about 300 (9.4%) showed activity. What follows is part of a selection rich in actives, with near analogues and random picks from the rest.
Outcomes: y (active), n (inactive)

{"Compound": "CC1C2Cc3ccc(O)cc3C1(C)CCN2CC1CC1 (stereo unspecified)", "Class Assignment": "n"}
{"Compound": "C=C(C)[C@@H]1C2OC(=O)C1[C@]1(O)CC3O[C@]34C(=O)O[C@H]2[C@]14C.CC(C)(O)[C@@H]1C2OC(=O)C1[C@]1(O)C[C@H]3O[C@]34C(=O)O[C@H]2[C@]14C (stereo partly specified)", "Class Assignment": "n"}
{"Compound": "C[C@]12CCC3C(CC[C@H]4C[C@H](O)CC[C@]34C)C1CC[C@@H]2C(=O)CO (stereo partly specified)", "Class Assignment": "n"}
{"Compound": "COc1cc([C@@H]2c3cc4c(cc3[C@H](O)[C@H]3COC(=O)[C@H]23)OCO4)cc(OC)c1OC", "Class Assignment": "y"}
{"Compound": "N#CC(C#N)=Cc1ccc(O)c(O)c1", "Class Assignment": "n"}
{"Compound": "C[C@H]1CCC/C=C/[C@@H]2C[C@H](O)C[C@H]2[C@H](O)/C=C/C(=O)O1", "Class Assignment": "y"}
{"Compound": "CC12CCC3C(CC=C4CC(OS(=O)(=O)O)CCC43C)C1CCC2=O (stereo unspecified)", "Class Assignment": "n"}
{"Compound": "CC(C)[C@H]1CN[C@H](C(=O)O)[C@H]1CC(=O)O", "Class Assignment": "n"}
{"Compound": "CCNC(=O)[C@H]1O[C@@H](n2cnc3c(N)ncnc32)[C@H](O)[C@@H]1O", "Class Assignment": "n"}
{"Compound": "Nc1ccc(CCN2CCN(c3cccc(C(F)(F)F)c3)CC2)cc1", "Class Assignment": "n"}
{"Compound": "C[C@H]1O[C@@H](C[N+](C)(C)C)CS1", "Class Assignment": "n"}
{"Compound": "N#CC(C#N)=Cc1ccc([N+](=O)[O-])c(O)c1", "Class Assignment": "y"}
{"Compound": "CN1C2CCC1CC(OC(c1ccccc1)c1ccccc1N)C2 (stereo unspecified)", "Class Assignment": "n"}
{"Compound": "C=CCN1CCc2cccc3c2[C@H]1Cc1ccc(O)c(O)c1-3", "Class Assignment": "n"}
{"Compound": "NC(CCP(=O)(O)O)C(=O)O (stereo unspecified)", "Class Assignment": "n"}
{"Compound": "NC(=O)CN1CC(O)CC1=O (stereo unspecified)", "Class Assignment": "n"}
{"Compound": "N#CC(C#N)=Cc1cc(O)c(O)c(O)c1", "Class Assignment": "n"}
{"Compound": "NNCc1cccc(O)c1", "Class Assignment": "n"}
{"Compound": "COc1cc(C=C(C#N)C#N)cc(O)c1O", "Class Assignment": "n"}
{"Compound": "CCCN(CCC)C1CCc2cccc(O)c2C1 (stereo unspecified)", "Class Assignment": "n"}
{"Compound": "CC(N)Cc1c[nH]c2ccc(O)cc12 (stereo unspecified)", "Class Assignment": "n"}
